# Assay overview: Distribution coefficient, log D of the compound at pH 7.4
# Assay type: physicochemical
# Measurement setup: octanol/water
# cutoff 3 applies to logD; >= gives yes, < gives no

Here are 5 compounds together with their reported answers.
Cc1c(CN2CCCC2)cc(-c2ccc(Cl)cc2)n1Nc1ccnc2cc(Cl)ccc12 yes
Cc1c(CN2CCCC2)cc(-c2ccc(Cl)cc2)n1CCCNc1ccnc2cc(Cl)ccc12 no
Cc1c(CN2CCCC2)cc(-c2ccccc2)n1Nc1ccnc2cc(Cl)ccc12 yes
Cc1c(CN2CCCC2)cc(-c2ccc(F)cc2)n1Nc1ccnc2cc(Cl)ccc12 yes
Cc1c(CN2CCCC2)cc(-c2ccc(N)cc2)n1Nc1ccnc2cc(Cl)ccc12 no

Ask: State whether the measured logD reaches 3, counting equality as reaching it, for "Cc1c(CN2CCCC2)cc(-c2ccc(C(F)(F)F)cc2)n1Nc1ccnc2cc(Cl)ccc12"
Reply: yes

Ask: Check if logD >= 3 (inclusive). Item: "Cc1ccc(-c2cc(CN3CCCC3)c(C)n2Nc2ccnc3cc(Cl)ccc23)cc1"
Reply: yes
